List of IC50 values.
tested on: Candida albicans; assay: Antifungal activity against Candida albicans ATCC 90028 by sphingolipid reversal assay in presence of 15 ug/mL stearylamine; type: functional, organism-based
readout.type: IC50 (µg/mL)

smiles.input	test.target	numeric.result
Nc1nc(=O)[nH]cc1F	Candida albicans	0.2
OC(Cn1cncn1)(Cn1cncn1)c1ccc(F)cc1F	Candida albicans	0.8
CCCCCCCCCCCCC#CCCCCC(=O)O	Candida albicans	15
CCCCCCCCCCCC#CCCCCC(=O)O	Candida albicans	15
C[C@@H]1[C@H](O)[C@@H](C)/C=C/C=C/C=C/C=C/C=C/C=C/C=C/[C@H](O[C@@H]2O[C@H](C)[C@@H](O)[C@H](N)[C@@H]2O)C[C@@H]2O[C@](O)(C[C@@H](O)C[C@@H](O)[C@H](O)CC[C@@H](O)C[C@@H](O)CC(=O)O[C@H]1C)C[C@H](O)[C@H]2C(=O)O	Candida albicans	0.4
